# assayProtocol: in vitro
# conditionDetails: human, Caco-2
# Description: Apparent permeability across basolateral to apical membrane in human Caco2 cells at 5 uM incubated for 120 mins in orbital shaker by LC-QTOF/MS analysis
measureName: Papp B→A at 2 h, 5 µM (×10⁻⁶ cm/s)

chemicalSmiles	measurementUnits	recordedResult
COc1cc(-c2cncc(-c3ccc(N4CCNCC4)cc3)c2C)cc(F)c1C(N)=O	×10⁻⁶ cm/s	10.7
COc1cc(-c2cncc(-c3ccc(N4C[C@@H](C)N(C)[C@@H](C)C4)cc3)c2C)cc(F)c1C(N)=O	×10⁻⁶ cm/s	14.5
COc1cc(-c2cncc(-c3ccc(N4CCN(C)CC4)cc3)c2C)cc(F)c1C(N)=O	×10⁻⁶ cm/s	16.2

---

# systemName: Activin receptor type-1 (Homo sapiens, UniProt Q04771)
# Sequence (Q04771 whole entry, the tested form may be a part): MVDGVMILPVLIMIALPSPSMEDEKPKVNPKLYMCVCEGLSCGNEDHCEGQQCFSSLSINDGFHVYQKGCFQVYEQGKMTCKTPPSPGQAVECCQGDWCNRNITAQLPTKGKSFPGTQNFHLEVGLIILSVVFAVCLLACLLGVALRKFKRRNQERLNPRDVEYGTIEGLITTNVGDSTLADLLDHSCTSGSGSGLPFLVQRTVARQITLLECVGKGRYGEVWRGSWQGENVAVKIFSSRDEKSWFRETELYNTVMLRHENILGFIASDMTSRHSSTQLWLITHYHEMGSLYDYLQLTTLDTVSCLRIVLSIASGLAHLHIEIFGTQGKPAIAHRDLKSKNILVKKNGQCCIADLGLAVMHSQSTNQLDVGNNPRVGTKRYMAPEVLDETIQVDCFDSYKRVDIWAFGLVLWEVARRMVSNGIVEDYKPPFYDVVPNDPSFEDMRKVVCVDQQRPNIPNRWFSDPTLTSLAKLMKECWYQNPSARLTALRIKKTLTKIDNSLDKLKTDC
# assayProtocol: Inhibition of C-terminal nanoluciferase-fused ALK2 (unknown origin) expressed in HEK293 cells incubated for 2 hrs followed by NanoBRET NanoGlo Substrate addition by NanoBRET assay
# Type: cell-based
pIC50: −log10 of the molar value.
pIC50 values for the compounds below.

chemicalSmiles	systemName	relation	pIC50
CNC(=O)c1ccc(-c2cncc(-c3ccc(N4CCNCC4)cc3)c2C)cc1OC	Activin receptor type-1 (Homo sapiens, UniProt Q04771)	<	5.30
COc1c(C(N)=O)csc1-c1cncc(-c2ccc(N3CCNCC3)cc2)c1C	Activin receptor type-1 (Homo sapiens, UniProt Q04771)	<	5.30
Cc1c(-c2ccc(N3CCNCC3)cc2)cncc1-c1ccc2c(c1)CNC2=O	Activin receptor type-1 (Homo sapiens, UniProt Q04771)	=	5.63
COc1cc(-c2cncc(-c3ccc(N4CCNCC4)cc3)c2C)sc1C(N)=O	Activin receptor type-1 (Homo sapiens, UniProt Q04771)	=	5.47
COc1cc(-c2cncc(-c3ccc(N4CCN(C)CC4)cc3)c2C)cc(F)c1C(N)=O	Activin receptor type-1 (Homo sapiens, UniProt Q04771)	=	7.03
COc1cc(-c2cncc(-c3ccc(N4CCNCC4)cc3)c2C)ccc1C(N)=O	Activin receptor type-1 (Homo sapiens, UniProt Q04771)	=	7.26
COc1c(-c2cncc(-c3ccc(N4CCNCC4)cc3)c2C)csc1C(N)=O	Activin receptor type-1 (Homo sapiens, UniProt Q04771)	=	5.55
COc1cc(-c2cncc(-c3ccc(N4CCNCC4)cc3)c2C)cc(F)c1C(N)=O	Activin receptor type-1 (Homo sapiens, UniProt Q04771)	=	7.09
COc1cc(-c2cncc(-c3ccc(N4C[C@@H](C)N(C)[C@@H](C)C4)cc3)c2C)cc(F)c1C(N)=O	Activin receptor type-1 (Homo sapiens, UniProt Q04771)	=	7.00
COc1cc(-c2cncc(-c3ccc(N4CCN(C)CC4)cc3)c2C)cc(OC)c1C(N)=O	Activin receptor type-1 (Homo sapiens, UniProt Q04771)	=	7.72
COc1cc(-c2cncc(-c3ccc(N4CCN(C(C)C)CC4)cc3)c2C)cc(OC)c1C(N)=O	Activin receptor type-1 (Homo sapiens, UniProt Q04771)	=	7.74
COc1cc(-c2cncc(-c3ccc(N4CCNCC4)cc3)c2C)cc(Cl)c1C(N)=O	Activin receptor type-1 (Homo sapiens, UniProt Q04771)	=	7.03
COc1cc(-c2cncc(-c3ccc(N4CCNCC4)cc3)c2C)cc(OC)c1C(N)=O	Activin receptor type-1 (Homo sapiens, UniProt Q04771)	=	6.75
COCc1cc(-c2cncc(-c3ccc(N4CCNCC4)cc3)c2C)ccc1C(N)=O	Activin receptor type-1 (Homo sapiens, UniProt Q04771)	=	5.42
Cc1c(-c2ccc(N3CCNCC3)cc2)cncc1-c1ccc(C(N)=O)c(F)c1	Activin receptor type-1 (Homo sapiens, UniProt Q04771)	=	5.99
COc1cc(C(N)=O)cc(-c2cncc(-c3ccc(N4CCNCC4)cc3)c2C)c1	Activin receptor type-1 (Homo sapiens, UniProt Q04771)	=	6.23
COc1cc(-c2cncc(-c3ccc(N4CCNCC4)cc3)c2C)ccc1C(=O)N(C)C	Activin receptor type-1 (Homo sapiens, UniProt Q04771)	<	5.30
Cc1c(-c2ccc(C(N)=O)cc2)cncc1-c1ccc(N2CCNCC2)cc1	Activin receptor type-1 (Homo sapiens, UniProt Q04771)	=	5.56
COc1ccc(-c2cncc(-c3ccc(N4CCNCC4)cc3)c2C)cc1C(N)=O	Activin receptor type-1 (Homo sapiens, UniProt Q04771)	=	6.16

---

# assayProtocol: in vitro
# conditionDetails: human, Caco-2
# Description: Apparent permeability across apical to basolateral membrane in human Caco2 cells at 5 uM incubated for 120 mins in orbital shaker by LC-QTOF/MS analysis

chemicalSmiles	measurementUnits	Papp A→B at 2 h, 5 µM
COc1cc(-c2cncc(-c3ccc(N4CCNCC4)cc3)c2C)cc(F)c1C(N)=O	×10⁻⁶ cm/s	0.3
COc1cc(-c2cncc(-c3ccc(N4C[C@@H](C)N(C)[C@@H](C)C4)cc3)c2C)cc(F)c1C(N)=O	×10⁻⁶ cm/s	4.3
COc1cc(-c2cncc(-c3ccc(N4CCN(C)CC4)cc3)c2C)cc(F)c1C(N)=O	×10⁻⁶ cm/s	5.5

---

IC50 values for the molecules below.
# systemName: TGF-beta receptor type-1 (Homo sapiens, UniProt P36897)
# Sequence (P36897 whole entry): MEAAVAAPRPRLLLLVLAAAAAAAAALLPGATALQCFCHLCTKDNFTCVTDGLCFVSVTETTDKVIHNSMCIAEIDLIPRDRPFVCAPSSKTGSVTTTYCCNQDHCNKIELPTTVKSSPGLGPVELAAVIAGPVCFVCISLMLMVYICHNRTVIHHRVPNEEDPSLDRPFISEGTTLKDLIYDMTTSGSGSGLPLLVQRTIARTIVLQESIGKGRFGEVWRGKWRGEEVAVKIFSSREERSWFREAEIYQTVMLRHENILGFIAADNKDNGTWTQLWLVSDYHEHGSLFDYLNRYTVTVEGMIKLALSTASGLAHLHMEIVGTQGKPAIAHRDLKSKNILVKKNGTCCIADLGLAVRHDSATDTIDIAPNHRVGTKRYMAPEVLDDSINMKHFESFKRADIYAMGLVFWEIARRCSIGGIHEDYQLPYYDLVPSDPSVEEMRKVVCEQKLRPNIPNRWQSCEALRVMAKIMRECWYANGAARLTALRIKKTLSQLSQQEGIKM
# Format: cell-based, HEK293
# Description: Inhibition of ALK5 (unknown origin) expressed in HEK293 cells transfected with CAGA-luciferase and Renilla luciferase reporter measured after 24 hrs by dual luciferase reporter assay

chemicalSmiles	systemName	IC50
COc1cc(-c2cncc(-c3ccc(N4CCN(C)CC4)cc3)c2C)cc(OC)c1C(N)=O	TGF-beta receptor type-1 (Homo sapiens, UniProt P36897)	0.249 µM
COc1cc(-c2cncc(-c3ccc(N4CCN(C(C)C)CC4)cc3)c2C)cc(OC)c1C(N)=O	TGF-beta receptor type-1 (Homo sapiens, UniProt P36897)	0.276 µM
COc1c(-c2cncc(-c3ccc(N4CCNCC4)cc3)c2C)csc1C(N)=O	TGF-beta receptor type-1 (Homo sapiens, UniProt P36897)	> 5 µM
COc1cc(-c2cncc(-c3ccc(N4C[C@@H](C)N(C)[C@@H](C)C4)cc3)c2C)cc(OC)c1C(N)=O	TGF-beta receptor type-1 (Homo sapiens, UniProt P36897)	0.283 µM
COc1cc(-c2cncc(-c3ccc(N4CCN(C)CC4)cc3)c2C)cc(F)c1C(N)=O	TGF-beta receptor type-1 (Homo sapiens, UniProt P36897)	4.3 µM
Cc1c(-c2ccc(N3CCNCC3)cc2)cncc1-c1ccc(C(N)=O)c(F)c1	TGF-beta receptor type-1 (Homo sapiens, UniProt P36897)	> 5 µM
CNC(=O)c1ccc(-c2cncc(-c3ccc(N4CCNCC4)cc3)c2C)cc1OC	TGF-beta receptor type-1 (Homo sapiens, UniProt P36897)	> 5 µM
Cc1c(-c2ccc(N3CCNCC3)cc2)cncc1-c1ccc2c(c1)CNC2=O	TGF-beta receptor type-1 (Homo sapiens, UniProt P36897)	4.81 µM
COCc1cc(-c2cncc(-c3ccc(N4CCNCC4)cc3)c2C)ccc1C(N)=O	TGF-beta receptor type-1 (Homo sapiens, UniProt P36897)	> 5 µM
Cc1c(-c2ccc(C(N)=O)cc2)cncc1-c1ccc(N2CCNCC2)cc1	TGF-beta receptor type-1 (Homo sapiens, UniProt P36897)	> 5 µM
COc1cc(-c2cncc(-c3ccc(N4C[C@@H](C)N(C)[C@@H](C)C4)cc3)c2C)cc(F)c1C(N)=O	TGF-beta receptor type-1 (Homo sapiens, UniProt P36897)	> 5 µM
COc1cc(C(N)=O)cc(-c2cncc(-c3ccc(N4CCNCC4)cc3)c2C)c1	TGF-beta receptor type-1 (Homo sapiens, UniProt P36897)	> 5 µM
COc1cc(-c2cncc(-c3ccc(N4CCNCC4)cc3)c2C)ccc1C(=O)N(C)C	TGF-beta receptor type-1 (Homo sapiens, UniProt P36897)	> 5 µM
COc1cc(-c2cncc(-c3ccc(N4CCNCC4)cc3)c2C)cc(Cl)c1C(N)=O	TGF-beta receptor type-1 (Homo sapiens, UniProt P36897)	> 5 µM
COc1cc(-c2cncc(-c3ccc(N4CCNCC4)cc3)c2C)sc1C(N)=O	TGF-beta receptor type-1 (Homo sapiens, UniProt P36897)	> 5 µM
COc1c(C(N)=O)csc1-c1cncc(-c2ccc(N3CCNCC3)cc2)c1C	TGF-beta receptor type-1 (Homo sapiens, UniProt P36897)	> 5 µM
COc1ccc(-c2cncc(-c3ccc(N4CCNCC4)cc3)c2C)cc1C(N)=O	TGF-beta receptor type-1 (Homo sapiens, UniProt P36897)	> 5 µM

---

# systemName: TGF-beta receptor type-1 (Homo sapiens)
# Format: single protein
# Description: Inhibition of human ALK5 using casein as substrate in presence of 10 uM [gamma33P] ATP by radioactive assay
pIC50: −log10 of the molar value.
measureName: pIC50

chemicalSmiles	relation	recordedResult
COc1c(C(N)=O)csc1-c1cncc(-c2ccc(N3CCNCC3)cc2)c1C	<	5.30
COc1cc(-c2cncc(-c3ccc(N4CCNCC4)cc3)c2C)cc(Cl)c1C(N)=O	=	5.68
COc1cc(-c2cncc(-c3ccc(N4C[C@@H](C)N(C)[C@@H](C)C4)cc3)c2C)cc(F)c1C(N)=O	=	5.54
COc1cc(-c2cncc(-c3ccc(N4CCNCC4)cc3)c2C)ccc1C(=O)N(C)C	<	5.30
COc1cc(-c2cncc(-c3ccc(N4CCN(C)CC4)cc3)c2C)cc(OC)c1C(N)=O	=	7.12
COc1cc(C(N)=O)cc(-c2cncc(-c3ccc(N4CCNCC4)cc3)c2C)c1	<	5.30
CNC(=O)c1ccc(-c2cncc(-c3ccc(N4CCNCC4)cc3)c2C)cc1OC	<	5.30
